test system: NCI-H322M lung; assay: NCI-60 one-dose screen, 48 h (100 = growth as untreated, 0 = no growth, -100 = all killed); conditions: 10 µM unless noted
Compounds without any hit were thinned out: in the full panel of roughly 83,000, 20% have a hit.
Criterion: growth meeting or surpassing 90%. Met: Fulfilled. Not met: Not fulfilled.

Test whether the compound "O=C(N/N=C/c1ccccc1O)c1ccccc1O" records growth of 90% or higher. Not fulfilled

Same read-out for "COc1cc(C(=O)C[n+]2ccccc2)ccc1OC(C)=O" ? Fulfilled

How about this compound: "Nc1nc(-c2cc3c(cc2Cl)NC(=O)/C3=C/c2ccc(Cl)cc2)cs1" Not fulfilled

Then "Nc1n[nH]c2cccc(C#Cc3cccc(NC(=O)c4cccc(C(F)(F)F)c4)c3)c12" ? Not fulfilled

Also "C/C(=N/NC(=O)Cn1c2ccccc2c2ccncc21)c1cccs1" , if possible. Fulfilled

And CCOC(=O)C1CN(Cc2ccccc2)C(=O)C1=O (stereo unspecified) ? Fulfilled

Thanks! And "Nc1ncnc2c1c(-c1ccc(Oc3ccccc3)cc1)nn2C[C@H]1SSC[C@@H]1O" ? Not fulfilled

Next compound: "COc1ccc(-c2cc(-c3nnc(SC/C(=N\O)c4ccccc4)n3-c3ccccc3)c3ccccc3n2)cc1" Fulfilled

Similarly, O=C(NOC1OC(CO)C(O)C(O)C1O)Nc1ccccc1 (stereo unspecified) ? Fulfilled

And "CC(=O)n1cc(/C=C2\N=C(c3ccc(Cl)cc3)N(c3ccc(S(=O)(=O)Nc4nccs4)cc3)C2=O)c2ccccc21" ? Not fulfilled

Let us now turn to "C=CC(=O)Nc1cccc(Nc2nc(Nc3ccc(OCCOC(F)F)cc3)ncc2F)c1" Not fulfilled

Also, "COc1ccc2c(c1)C(=O)/C(=C/c1ccc(OCC(=O)c3ccc(Cl)cc3)cc1)O2" please. Fulfilled

Try "O=C(NCCNc1nccc(-c2c(-c3cccc(O)c3)nc3sccn23)n1)Nc1cccc(C(F)(F)F)c1" next. Not fulfilled

# iterate: "Fc1ccc(Nc2ncnc3ccc(-c4cn[nH]c4)cc23)cc1Cl" Not fulfilled

What do you get for "CCN(CC)CCC(C(=O)O)(c1ccccc1)c1ccccc1" ? Fulfilled

Try the compound "O=C(Nc1ccc(-n2cc(-c3ccncc3)c(-c3ccc(O)c(Cl)c3)n2)cc1)Nc1cc(C(F)(F)F)cc(C(F)(F)F)c1" Not fulfilled

Another: "CCn1c(C)nc([N+](=O)[O-])c1Sc1nc(N)nc2nc[nH]c12" Not fulfilled

Same lookup for "COc1ccccc1S(=O)(=O)Nc1ccc2c3c(cc(-c4cnn(C5CC5)c4)nc13)C(=O)N2C" , please. Not fulfilled

Subsequent entry: "Oc1ccc(O)c(-[n+]2ccccc2)c1" Fulfilled

What do you have for "CCN(CC)CCN1C(=O)c2c(c3c4ccccc4[nH]c3c3[nH]c4ccccc4c23)C1=O" ? Not fulfilled

----------
test system: NCI-H226 lung; experiment: NCI-60 one-dose screen, 48 h (100 = growth as untreated, 0 = no growth, -100 = all killed); conditions: 10 µM unless noted
Compounds without any hit were thinned out: in the full panel of roughly 83,000, 20% have a hit.
Consider the reported growth of an entry and match it to a band in bucket 1: < 70%; bucket 2: ≥ 70% and < 90%; bucket 3: ≥ 90%

Tag the class for "COc1cc2ncn3c(=O)c4c5c(sc4nc3c2cc1OC)CCCCC5" bucket 2

For OC(COc1ccccc1Cl)CN1CCN(c2ccc(Cl)cc2)CC1 (stereo not given) then? bucket 3

Continue with COc1cccc(/C=N/C(=S)NC2(C)C3CCC(C3)C2(C)C)c1O (stereo not given) bucket 3

# repeat for "C=C1C(=O)O[C@H]2[C@H]1CC/C(COC(=O)c1ccc3ccccc3c1)=C\CC[C@@]1(C)O[C@@H]21" bucket 1

Moving on to the next compound: CCC1S/C(=N\N=C(/C)c2ccco2)N(c2ccccc2)C1=O (stereo not given) bucket 3

Proceed to "C=CCn1c(SCC(=O)Nc2ccc(C(=O)/C=C/c3cc(OC)c(OC)c(OC)c3)cc2)nnc1-c1ccc(OC)cc1" bucket 1

Please answer likewise for "CSc1nc(N)nc2c1ncn2C" bucket 3

Further, for "O=C1CCC(=O)N1C1CCCCC1" ? bucket 3

Also "COc1ccc(CNc2nc3ccccc3c3c(=O)c4ccccc4sc23)cc1OC" , if possible. bucket 2

Data provenance: PubChem BioAssay (NCI)
